Study Target: IKr current (KCNH2 potassium channel) (Homo sapiens)
Sequence (Q12809 whole entry): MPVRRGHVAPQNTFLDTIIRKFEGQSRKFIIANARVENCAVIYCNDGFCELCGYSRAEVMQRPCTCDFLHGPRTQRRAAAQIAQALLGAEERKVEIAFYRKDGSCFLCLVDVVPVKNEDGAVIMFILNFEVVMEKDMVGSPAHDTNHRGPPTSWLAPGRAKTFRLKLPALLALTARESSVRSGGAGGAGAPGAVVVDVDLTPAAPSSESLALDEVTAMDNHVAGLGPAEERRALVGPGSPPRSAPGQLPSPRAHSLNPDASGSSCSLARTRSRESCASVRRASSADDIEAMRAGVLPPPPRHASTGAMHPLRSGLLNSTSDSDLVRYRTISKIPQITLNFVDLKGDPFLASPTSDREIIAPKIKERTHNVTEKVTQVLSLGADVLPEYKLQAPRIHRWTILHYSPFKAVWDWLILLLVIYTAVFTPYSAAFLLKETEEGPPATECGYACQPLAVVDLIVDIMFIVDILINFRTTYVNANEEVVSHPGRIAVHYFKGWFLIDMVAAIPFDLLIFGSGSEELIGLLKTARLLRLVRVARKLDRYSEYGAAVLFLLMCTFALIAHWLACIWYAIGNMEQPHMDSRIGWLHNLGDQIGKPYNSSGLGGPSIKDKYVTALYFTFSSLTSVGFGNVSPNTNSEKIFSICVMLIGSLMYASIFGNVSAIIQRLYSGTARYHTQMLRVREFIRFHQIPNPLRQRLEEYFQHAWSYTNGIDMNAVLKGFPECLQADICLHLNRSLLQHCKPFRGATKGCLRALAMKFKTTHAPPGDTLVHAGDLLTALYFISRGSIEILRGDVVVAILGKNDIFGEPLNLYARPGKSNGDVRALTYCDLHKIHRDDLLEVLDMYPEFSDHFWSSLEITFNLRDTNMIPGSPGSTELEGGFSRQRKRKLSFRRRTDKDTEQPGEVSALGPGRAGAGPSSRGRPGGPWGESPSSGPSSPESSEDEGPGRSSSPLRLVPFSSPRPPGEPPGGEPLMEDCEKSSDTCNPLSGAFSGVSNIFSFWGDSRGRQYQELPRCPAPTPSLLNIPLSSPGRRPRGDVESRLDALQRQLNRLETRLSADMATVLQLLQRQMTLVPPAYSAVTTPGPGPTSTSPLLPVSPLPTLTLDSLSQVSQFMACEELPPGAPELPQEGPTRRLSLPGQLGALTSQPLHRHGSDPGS
Assay Summary: Inhibition of Ikr current in isolated guinea pig myocytes during a 0.5 s voltage clamp step from -50 to -10 mV at 1000 nM
Type: functional, cell-based, Cavia porcellus
Experimental Context: target entry is the homologue from another species
inhibition at 1 µM by entry:

Compound Smiles: CN1C(=O)[C@H](NC(=O)CCc2ccc(Cl)cc2Cl)N=C(c2ccccc2)c2ccccc21
Study Target: IKr current (KCNH2 potassium channel) (Homo sapiens)
inhibition at 1 µM / %: 31
--
Compound Smiles: CN1C(=O)[C@H](NC(=O)c2ccccc2)N=C(c2ccccc2)c2ccccc21
Study Target: IKr current (KCNH2 potassium channel) (Homo sapiens)
inhibition at 1 µM / %: 23
--
Compound Smiles: O=C(Cc1ccc(C(F)(F)F)cc1C(F)(F)F)N[C@H]1N=C(c2ccccc2)c2ccccc2N(CC(F)(F)F)C1=O
Study Target: IKr current (KCNH2 potassium channel) (Homo sapiens)
inhibition at 1 µM / %: 35
--
Compound Smiles: CN1C(=O)[C@H](NC(=O)CCc2ccccc2)N=C(c2ccccc2)c2ccccc21
Study Target: IKr current (KCNH2 potassium channel) (Homo sapiens)
inhibition at 1 µM / %: 32
--
Compound Smiles: CC(C)N1C(=O)[C@@H](NC(=O)c2cc(Cl)cc(Cl)c2)N=C(c2ccccc2)c2ccccc21
Study Target: IKr current (KCNH2 potassium channel) (Homo sapiens)
inhibition at 1 µM / %: 6
--
Compound Smiles: CN1C(=O)[C@H](NC(=O)c2cc(Cl)cc(Cl)c2)N=C(c2ccccc2)c2ccccc21
Study Target: IKr current (KCNH2 potassium channel) (Homo sapiens)
inhibition at 1 µM / %: 17
--
Compound Smiles: CN1C(=O)[C@H](NC(=O)Cc2ccccc2)N=C(c2ccccc2)c2ccccc21
Study Target: IKr current (KCNH2 potassium channel) (Homo sapiens)
inhibition at 1 µM / %: 31
